# assayed-target: Cholecystokinin receptor type A (Homo sapiens); note: assay procedure not described here
# Sequence (P32238 whole entry): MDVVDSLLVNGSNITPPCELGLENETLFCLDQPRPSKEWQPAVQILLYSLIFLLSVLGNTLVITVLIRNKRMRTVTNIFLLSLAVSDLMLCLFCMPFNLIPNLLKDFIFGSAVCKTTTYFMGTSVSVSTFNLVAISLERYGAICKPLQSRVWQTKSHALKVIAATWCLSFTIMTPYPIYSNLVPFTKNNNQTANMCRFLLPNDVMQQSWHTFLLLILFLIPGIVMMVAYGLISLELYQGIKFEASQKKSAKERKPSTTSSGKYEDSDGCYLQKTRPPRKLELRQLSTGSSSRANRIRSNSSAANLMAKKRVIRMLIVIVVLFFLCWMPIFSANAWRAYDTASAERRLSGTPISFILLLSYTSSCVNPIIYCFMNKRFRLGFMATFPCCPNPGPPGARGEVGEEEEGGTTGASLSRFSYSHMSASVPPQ
Each item that follows carries a reported AC50.

compound	assayed-target	AC50
CN1CCN(C2=Nc3ccccc3Oc3ccc(Cl)cc32)CC1 [LOXAPINE]	Cholecystokinin receptor type A (Homo sapiens)	> 30 µM
CC12CC3CC(C)(C1)CC(N)(C3)C2 [MEMANTINE]	Cholecystokinin receptor type A (Homo sapiens)	> 30 µM
COc1ccc(CC2c3cc(OC)c(OC)cc3CC[N+]2(C)CCC(=O)OCCCCCOC(=O)CC[N+]2(C)CCc3cc(OC)c(OC)cc3C2Cc2ccc(OC)c(OC)c2)cc1OC (configuration not stated)	Cholecystokinin receptor type A (Homo sapiens)	> 30 µM
CC(C(=O)O)c1ccc2c(c1)[nH]c1ccc(Cl)cc12 (configuration not stated) [CARPROFEN]	Cholecystokinin receptor type A (Homo sapiens)	> 30 µM
Cc1onc(-c2ccccc2)c1-c1ccc(S(N)(=O)=O)cc1 [VALDECOXIB]	Cholecystokinin receptor type A (Homo sapiens)	> 30 µM
C=C1/C(=C\C=C2/CCC[C@]3(C)[C@@H]([C@H](C)/C=C/[C@@H](O)C4CC4)CC[C@@H]23)C[C@@H](O)C[C@@H]1O [CALCIPOTRIENE]	Cholecystokinin receptor type A (Homo sapiens)	> 30 µM
Clc1ccc2c(N3CCN(CCCN4CCN(c5ccnc6cc(Cl)ccc56)CC4)CC3)ccnc2c1 [PIPERAQUINE]	Cholecystokinin receptor type A (Homo sapiens)	> 30 µM
C#CCOc1ccc(N)cc1C(=O)NCCCC [PARSALMIDE]	Cholecystokinin receptor type A (Homo sapiens)	> 30 µM
CN(C)CCc1c[nH]c2ccc(Cn3cncn3)cc12 [RIZATRIPTAN]	Cholecystokinin receptor type A (Homo sapiens)	> 30 µM
C/C(=C\C(=O)OCCCCCCCCC(=O)O)C[C@@H]1OC[C@H](C[C@@H]2O[C@H]2[C@@H](C)[C@H](C)O)[C@@H](O)[C@H]1O [MUPIROCIN]	Cholecystokinin receptor type A (Homo sapiens)	> 10 µM
CC(=O)[C@]1(O)Cc2c(O)c3c(c(O)c2[C@@H](O[C@H]2C[C@H](N)[C@H](O)[C@H](C)O2)C1)C(=O)c1ccccc1C3=O [IDARUBICIN]	Cholecystokinin receptor type A (Homo sapiens)	> 10 µM
COc1ccccc1OCCNCC(O)COc1cccc2[nH]c3ccccc3c12 (configuration not stated) [CARVEDILOL]	Cholecystokinin receptor type A (Homo sapiens)	> 30 µM
C=C[C@@]1(C)CC(=O)[C@]2(O)[C@@]3(C)[C@@H](O)CCC(C)(C)[C@@H]3[C@H](O)[C@H](OC(C)=O)[C@@]2(C)O1 [COLFORSIN]	Cholecystokinin receptor type A (Homo sapiens)	> 30 µM
CCC(=O)O[C@H]1CC[C@H]2[C@@H]3CCC4=CC(=O)CC[C@]4(C)[C@H]3CC[C@]12C [TESTOSTERONE PROPIONATE]	Cholecystokinin receptor type A (Homo sapiens)	> 10 µM
CC(C)(C)NCC(O)c1cc(O)cc(O)c1 (configuration not stated) [TERBUTALINE]	Cholecystokinin receptor type A (Homo sapiens)	> 30 µM
CN(C)CC[C@@H](c1ccc(Cl)cc1)c1ccccn1 [DEXCHLORPHENIRAMINE]	Cholecystokinin receptor type A (Homo sapiens)	> 30 µM
Cn1c(=O)cc(N2CCC[C@@H](N)C2)n(Cc2ccccc2C#N)c1=O [ALOGLIPTIN]	Cholecystokinin receptor type A (Homo sapiens)	> 30 µM
CCCCC1C(=O)N(c2ccccc2)N(c2ccccc2)C1=O [PHENYLBUTAZONE]	Cholecystokinin receptor type A (Homo sapiens)	> 30 µM
CCC(C)C(CC)C(N)=O (configuration not stated) [VALNOCTAMIDE]	Cholecystokinin receptor type A (Homo sapiens)	> 30 µM
NC1CCN(c2nc3c(cc2F)c(=O)c(C(=O)O)cn3-c2ccc(F)cc2F)C1 (configuration not stated) [TOSUFLOXACIN]	Cholecystokinin receptor type A (Homo sapiens)	> 30 µM
CCN(CC)CCN1C(=O)CN=C(c2ccccc2F)c2cc(Cl)ccc21 [FLURAZEPAM]	Cholecystokinin receptor type A (Homo sapiens)	> 30 µM
OC[C@H]1O[C@@](CO)(O[C@H]2O[C@H](CO)[C@@H](O)[C@H](O)[C@H]2O)[C@@H](O)[C@@H]1O [SUCROSE]	Cholecystokinin receptor type A (Homo sapiens)	> 30 µM
CCOC(=O)C1=C[C@]2(CC)CCCN3CCc4c(n1c1ccccc41)[C@@H]32 [VINPOCETINE]	Cholecystokinin receptor type A (Homo sapiens)	> 30 µM
CN(C)CCC[C@@]1(c2ccc(F)cc2)OCc2cc(C#N)ccc21 [ESCITALOPRAM]	Cholecystokinin receptor type A (Homo sapiens)	> 30 µM
CC(C)(C)C(=O)OCC(=O)[C@H]1CC[C@H]2[C@@H]3CCC4=CC(=O)CC[C@]4(C)[C@H]3CC[C@]12C [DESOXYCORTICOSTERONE PIVALATE]	Cholecystokinin receptor type A (Homo sapiens)	> 10 µM
CC(C(=O)O)c1ccc(CC2CCCC2=O)cc1 (configuration not stated) [LOXOPROFEN]	Cholecystokinin receptor type A (Homo sapiens)	> 30 µM
CCOC(=O)C1=C(C)NC(C)=C(C(=O)OC)C1c1cccc([N+](=O)[O-])c1 (configuration not stated) [NITRENDIPINE]	Cholecystokinin receptor type A (Homo sapiens)	> 30 µM
CC(=O)N[C@@H](CS)C(=O)O [ACETYLCYSTEINE]	Cholecystokinin receptor type A (Homo sapiens)	> 30 µM
CC1=C(C)C(=O)C(C(CCCCCC(=O)O)c2ccccc2)=C(C)C1=O (configuration not stated) [SERATRODAST]	Cholecystokinin receptor type A (Homo sapiens)	> 30 µM
O=C1CN=C(c2ccccn2)c2cc(Br)ccc2N1 [BROMAZEPAM]	Cholecystokinin receptor type A (Homo sapiens)	> 10 µM
COc1cc2nccc(Oc3ccc(NC(=O)C4(C(=O)Nc5ccc(F)cc5)CC4)cc3)c2cc1OC [CABOZANTINIB]	Cholecystokinin receptor type A (Homo sapiens)	> 30 µM
CO[C@H]1/C=C/O[C@@]2(C)Oc3c(C)c(O)c4c(O)c(c(/C=N/N5CCN(C)CC5)c(O)c4c3C2=O)NC(=O)/C(C)=C\C=C\[C@H](C)[C@H](O)[C@@H](C)[C@@H](O)[C@@H](C)[C@H](OC(C)=O)[C@@H]1C [RIFAMPIN]	Cholecystokinin receptor type A (Homo sapiens)	17.1 µM
